Numbers sourced from PubChem BioAssay (NCI).

Measured TGI, listed per entry for reference.
Tested on: SNB-19 CNS
TEST_DESCRIPTION: NCI tumour cell line growth inhibition, 48 h

COMPOUND	RESULT
Cc1ccccc1NC(=O)C(=O)C(c1cnc2ccc([N+](=O)[O-])cc2n1)[N+](=O)[O-] (stereo not drawn)	> 100 µM
COC(=O)C(=O)C(C(=O)C(=O)Nc1ccc(Cl)cc1C)c1nc2ccc(C(=O)c3ccccc3)cc2[nH]c1=O (stereo not drawn)	> 100 µM
O=[N+]([O-])c1cc(CCl)ccc1CCl	3.8 µM
C=CCNC(=S)N1c2ccccc2NC(=O)CC1C (stereo not drawn)	> 100 µM
CN[C@]12CC3(C=CC(=O)C=C3)O[C@@]1(Cc1ccc(OC)cc1)N(C)C(=O)N2	14.5 µM

Task: Reported TGI for COC(=O)C(C(=O)C(=O)Nc1ccccc1C(C)=O)c1nc2ccc(Cl)cc2[nH]c1=O (stereo not drawn) : what is it?
Output: > 100 µM

Task: Reported TGI for COc1ccc(CNc2nc3cc(C(F)(F)F)ccc3nc2C(=O)O)cc1OC : what is it?
Output: > 100 µM

Task: Reported TGI for CC1(C)CC[C@]2(C(=O)O)CC[C@]3(C)C(=CC[C@@H]4[C@@]5(C)C[C@H](O)[C@H](O)[C@@](C)(CO)C5=CC[C@]43C)[C@@H]2C1 : what is it?
Output: > 100 µM
